Values were extracted from ChEMBL document CHEMBL3352818.

The reader will find reported TD50 at 4 h values listed item by item below.
- method: Neurotoxicity in ip dosed CF1 albino mouse seizure model after 4 hr by rototod test
- Format: toxicity, organism-based
- testConditions: in vivo
outcomeMeasure: TD50 at 4 h

[[record]]
structurestring = "Cc1ccc(C(C)C)cc1O"
resultvalue = "191 mg/kg"

[[record]]
structurestring = "CC(C)c1ccccc1O"
resultvalue = "142 mg/kg"

[[record]]
structurestring = "Cc1ccc(C(C)C)c(O)c1"
resultvalue = "121 mg/kg"

[[record]]
structurestring = "CC(C)c1cccc(O)c1"
resultvalue = "129 mg/kg"


* * *

- Test system: Mus musculus
- method: Neurotoxicity in CF1 albino mouse seizure model assessed as time to peak toxic effect at 100 mg/kg, ip after 4 hr by rototod test
- Assay type: toxicity, organism-based
- Parameters: dose 100 mg/kg, route intraperitoneal
- testConditions: in vivo
Each entry below lists one item and its recorded Time value.
outcomeMeasure: Time (h)

[[record]]
compound = "Cc1ccc(C(C)C)c(O)c1 [THYMOL]"
outcomemeasure = "Time"
resultvalue = 0.25

[[record]]
compound = "CC(C)c1cccc(O)c1"
outcomemeasure = "Time"
resultvalue = 4

[[record]]
compound = "Cc1ccc(C(C)C)cc1O [CARVACROL]"
outcomemeasure = "Time"
resultvalue = 6

[[record]]
compound = "CC(C)c1ccccc1O"
outcomemeasure = "Time"
resultvalue = 4


* * *

- method: Protective index, ratio of TD50 for CF1 albino mouse neurotoxicity to ED50 for protection against 6 Hz electroshock-induced seizure in CF1 albino mouse
- Assay type: toxicity, organism-based
- testConditions: in vivo, read-out: Ratio TD50/ED50
Returns Yes if the recorded selectivity ratio is greater than or equal to 3, and No otherwise.

[[record]]
structurestring = "Cc1ccc(C(C)C)c(O)c1"
answerlabel = "Yes"

[[record]]
structurestring = "Cc1ccc(C(C)C)cc1O"
answerlabel = "Yes"

[[record]]
structurestring = "CC(C)c1cccc(C(C)C)c1O"
answerlabel = "No"

[[record]]
structurestring = "CN1C(=O)OC(C)(C)C1=O"
answerlabel = "Yes"

[[record]]
structurestring = "CC(C)c1cccc(O)c1"
answerlabel = "No"

[[record]]
structurestring = "CC(C)c1ccccc1O"
answerlabel = "No"


* * *

- System: Mus musculus
- method: Anticonvulsant activity against ip dosed CF1 albino mouse seizure model after 4 hrs by 6 Hz psychomotor seizure test
- Format: functional
label 1 if ED50 is below 50 mg/kg. label 0 if not; exact matches included in label 0.

[[record]]
molecule = "CC(C)c1cccc(O)c1"
answerlabel = "label 0"

[[record]]
molecule = "NC(=O)N1c2ccccc2C=Cc2ccccc21 [CARBAMAZEPINE]"
answerlabel = "label 1"

[[record]]
molecule = "Cc1ccc(C(C)C)c(O)c1"
answerlabel = "label 1"

[[record]]
molecule = "CN1C(=O)OC(C)(C)C1=O"
answerlabel = "label 0"

[[record]]
molecule = "CC(C)c1cccc(C(C)C)c1O"
answerlabel = "label 1"

[[record]]
molecule = "Cc1ccc(C(C)C)cc1O"
answerlabel = "label 1"

